% inhibition reference
System: human Factor 11 mRNA
run-description: Antisense inhibition of human Factor 11 in HepG2 cells by microwalk gapmers, lipofectin, 75 nM (Example 3)
Format: cell-based
run-parameters: HepG2 cells, lipofectin, gapmers targeted to nucleobases 1275 to 1318 of SEQ ID NO: 1
Strand notation (5' to 3'): a small letter for the sugar, then the base; units joined by * are phosphorothioate-linked, units joined directly phosphodiester-linked; [ ] holds rarer units or linkages, { } end groups; capitals alone tell only the bases. e = 2'-O-(2-methoxyethyl) (MOE); [5mC] = 5-methylcytosine; d = 2'-deoxy (DNA)
Please answer in the form of a number followed by its unit of measurement.

Previously resolved entries follow.
>>> recorded_value("413482 (antisense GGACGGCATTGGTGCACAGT; 5-10-5 MOE gapmer, further chemistry not given here) [compound 413482]")
"89%"
>>> recorded_value("412224 (antisense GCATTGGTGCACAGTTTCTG; 5-10-5 MOE gapmer, further chemistry not given here) [compound 412224]")
"93%"
>>> recorded_value("416936 (antisense e[5mC]*eG*eG*dA*d[5mC]*dG*dG*d[5mC]*dA*dT*dT*dG*dG*dT*dG*d[5mC]*dA*e[5mC]*eA*eG) [compound 416936]")
"89%"

Note: attention shifts to another entry.
query: Please look up its % inhibition: 417019 (antisense eT*eG*dG*d[5mC]*dA*dG*d[5mC]*dG*dG*dA*d[5mC]*dG*dG*d[5mC]*dA*eT*eT*eG*eG*eT) [compound 417019]
result: 84%
